target-system: T1, human E-selectin extracellular domain with 10 His purification tail (human, UniProt P16581 22-556)
T1 construct: also called soluable human E-selectin extracellular domain; rhE-Selectin
T1 sequence: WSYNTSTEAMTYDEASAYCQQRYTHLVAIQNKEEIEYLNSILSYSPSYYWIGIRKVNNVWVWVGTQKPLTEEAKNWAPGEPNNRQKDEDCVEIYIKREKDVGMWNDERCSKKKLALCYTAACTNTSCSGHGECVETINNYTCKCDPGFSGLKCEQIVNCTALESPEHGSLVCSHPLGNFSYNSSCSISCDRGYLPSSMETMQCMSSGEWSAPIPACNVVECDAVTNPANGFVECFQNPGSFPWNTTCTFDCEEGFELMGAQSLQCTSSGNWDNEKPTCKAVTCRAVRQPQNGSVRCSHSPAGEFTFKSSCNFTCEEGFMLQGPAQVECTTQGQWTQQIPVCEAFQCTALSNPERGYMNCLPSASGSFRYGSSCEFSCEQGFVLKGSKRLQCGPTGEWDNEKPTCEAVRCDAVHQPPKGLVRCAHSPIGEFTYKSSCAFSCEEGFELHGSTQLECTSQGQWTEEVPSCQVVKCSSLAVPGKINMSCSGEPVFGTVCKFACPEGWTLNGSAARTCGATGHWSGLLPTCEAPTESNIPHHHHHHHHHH
assay-remarks: AlphaLISA competition vs sialyl Lewis A-PAA-biotin
measurement-label: EC50

Reported EC50 of anti-E-selectin antibody 0170 chimera (antibody, human IgG1, kappa, V domains shown, rat VH/VL on effector-null human IgG1 and human kappa) VH: EVQLQQSGAELGKPGTSVKLSCKVSGYSIRSTYMHWVNQRPGKGLEWVGRIDPANGNTIYAERFKNKATLTADTSSNTAYMQLSQLKSDDTAIYFCAVEILGIFDYWGQGVMVTVSS VL: DIQMTQSPSFLSASVGDRVTINCKASQNIDKYLDWYQQKLGEAPKLLMYNTNSLHTGIPSRFSGSGSGTDFTLTISSLQPEDVATYFCLQHNSGYTFGAGTKLELKR : < 1 nM

Reported EC50 of anti-E-selectin antibody 0039 chimera (antibody, human IgG1, kappa, V domains shown, rat VH/VL on effector-null human IgG1 and human kappa) VH: QVQLKETGPGLVQPTQTLSITCTVSGFSLTGYYMQWVRQTPGKGLEWMGFIRSSGSTEYNSEFKSRLSISRDTSKNQVFLKMNSLKTEDTGVYYCARCPYKYSSFVYVGVMDAWGQGAPVTVSS VL: EIVMTQSPTSMSTSIGERVTLNCKASQTVGINVDWYQQTPGQPPKLLIYGASNRHTGVPDRFTGSGFGRDFTLTISNVEAEDLAVYCCLQYGSIPHTFGPGTKLELKR : < 1 nM

Continuing:
Reported EC50 of anti-E-selectin antibody 0159 chimera (antibody, human IgG1, kappa, V domains shown, rat VH/VL on effector-null human IgG1 and human kappa) VH: EVQLQQSGAELGKPGTSVKLSCKVSGYNIRSTYMHWVSQRPGKGLEWIGRIDPANGNTIYAEKFKRKATLTADTSSNTAYMQLSQLKSDDRAIYFCAMEVRVSFEYWGQGVMVTVSS VL: DIQMTQSPSFLSASVGDRVTINCKASQNINKYLDWYQQKLGEGPKLLIYYTNNLHTGIPSRFSGSGSGTDFTLTISSLQPEDVATYFCLQHDSGYTFGAGTKLELKR : < 1 nM
